system: T1, human 5T4 oncofoetal antigen (human, UniProt Q13641 32-420)
T1 construct: whole, on cells; also called hu 5T4; human 5T4 antigen
T1 sequence (looked up): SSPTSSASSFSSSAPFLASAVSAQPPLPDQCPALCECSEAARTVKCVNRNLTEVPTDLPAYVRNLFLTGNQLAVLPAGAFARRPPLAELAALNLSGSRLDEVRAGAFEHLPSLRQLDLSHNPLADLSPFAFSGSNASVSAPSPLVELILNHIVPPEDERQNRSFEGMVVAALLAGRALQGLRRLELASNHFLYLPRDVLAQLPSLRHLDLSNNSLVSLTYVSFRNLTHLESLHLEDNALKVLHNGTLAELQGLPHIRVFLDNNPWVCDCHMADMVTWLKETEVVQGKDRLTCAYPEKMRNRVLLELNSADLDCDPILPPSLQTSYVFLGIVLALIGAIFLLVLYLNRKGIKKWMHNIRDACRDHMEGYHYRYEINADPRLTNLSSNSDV
assay: flow cytometry, MDA-MB-468 cells
recorded.metric: EC50
Your answer should be a number followed by the unit of measure.

Some entries whose results are on file:
{"binder": "chimeric anti-5T4 monoclonal antibody 829 (antibody, human IgG1, V domains shown) VH: QSLEESGGRLVTPGTPLTLTCTASGFSLSSYDMSWVRQAPGKGLEYIGWINSDDGAYYANWAKGRFTISRTSTTVDLKITSPTTEDTATYFCARDAGSTYLYGLDPWGPGTLVTVSS VL: DVVMTQTPSSVSAGVGGTVTIKCQASQSISSYLAWYQQKPGQRPKLLIYAASTLASGVSSRFKGSGSGTEYTLTINDLESADAATYYCQCTYYGGTYNTFGGGTEVVVK", "recorded.metric": "EC50", "obs.value": "0.17 µg/mL"}
{"binder": "chimeric anti-5T4 monoclonal antibody 848 (antibody, human IgG1, V domains shown) VH: QSVEESGGRLVTPGTPLTLTCTVSGFSLSSYTMSWVRQAPGKGLEWIGIISSIGSIWYASWAKGRFTISKTSTTVDLKMTSLTTEDTATYFCARDGTGSKYYTWDRLDLWGQGTLVTVSS VL: NIVMTQTPSPVSGAVGGTVTINCQASQSIYNELSWYQQKPGQPPKLLIYYTSTLASGVSSRFKGSGSGTQFTLTISGVESVDAATYYCQQGYSSSDVDNVFGGGTEVVVK", "recorded.metric": "EC50", "obs.value": "0.09 µg/mL"}
{"binder": "chimeric anti-5T4 monoclonal antibody 868 (antibody, human IgG1, V domains shown) VH: QSVEESGGRLVTPGTPLTLTCTASGFSLSDYTMGWVRQAPGKGLEWIGIINGYGSTYYANWAKGRFAISKTSTTVDLKITSPATEDTATYFCARGDTGRTYDMHFNLWGQGTLVTVSS VL: AYDMTQTPASVSAAVGGTVTIKCQASESIRSWLAWYQQKPGQPPKLLIYSASTLASGVSSRFKGSGSGTQFTLTIGDLESADAATYYCQQGYTSSNLDNAFGGGTEVLVK", "recorded.metric": "EC50", "obs.value": "0.14 µg/mL"}

Given item chimeric anti-5T4 monoclonal antibody 908 (antibody, human IgG1, V domains shown) VH: QSVEESGGRLVTPGTPLTLTCTVSGFSLSNFAMSWVRQAPGKGLEWIGIINGYGSIYYATWAKGRFTISKTSTTVDLKITSPTTEDTATYFCARGDAGRTYNHYFNIWGPGTLVTVSL VL: DVVMTQTPASVEAAVGGTVTIKCQASQSISSWLSWYQQKPGQRPKLLIYAASNLASGVPSRFKGSGSGTQFTLTISDLESDDAATYYCQQGYTSYNVDNAFGGGTEVVVK , the value recorded as its EC50 is 0.21 µg/mL

Given item chimeric anti-5T4 monoclonal antibody 845 (antibody, human IgG1, V domains shown) VH: QSLEESGGRLVTPGTPLTLTCTVSGIDLSSYTMNWVRQAPGKGLEWIGVITSHNTYYASWAKGRFTISKTSTTVDLKITSPTTEDTATYFCARSNYGSTIYYMGGMDPWGPGTLVTVSS VL: DVVMTQTPASVSAAVGGTVTINCQASQSIGSYLAWYQHQPGQPPKLLIYSASTLESGVSSRFEGSRSGTEYTLTISDLDSADAATYYCQCTDYGASYLGAFGGGTEVVVK , the value recorded as its EC50 is 0.11 µg/mL
